- Test system: MCF7 breast
- TEST NAME: NCI-60 one-dose screen, 48 h
- EXPERIMENTAL SETUP: 10 µM unless noted
About 83,000 compounds went through this panel and 20% of them were active in at least one assay; those are over-represented in the sample as a whole. Calls of active or inactive are those of the source. Rule for the calls: active = growth percent below 10; inactive = the rest.
Labels: active, inactive

INSERT INTO results (molecule, assigned_label) VALUES
  ('CC(=O)/C(Cc1ccccc1)=N/O', 'inactive'),
  ('COc1ccc(OC)c(/C=C2\CCc3ccccc3C2=O)c1', 'inactive'),
  ('CN(C)c1ccc(CNC(C(=O)c2ccccc2)c2ccccc2)cc1 (stereo unspecified)', 'inactive'),
  ('Cc1cc(=O)cc(C)n1-c1ccccc1', 'inactive'),
  ('Cc1cc(O)ccc1O', 'inactive'),
  ('CCOc1ccc(/C=N/N=C(N)N)cc1OCC', 'inactive'),
  ('O=C(Cc1ccc(OCc2ccccc2)cc1)NCc1ccc2c(c1)OCO2', 'inactive'),
  ('CCCCOC(=O)c1ccc(C(C)C)cc1', 'inactive'),
  ('COc1ccc2c(c1)CCc1c-2n[nH]c1-c1[nH]nc2c1CCc1cc(OC)ccc1-2', 'inactive'),
  ('CC(C)(C)c1cc(O)c(C(C)(C)C)cc1O', 'inactive'),
  ('Nc1ccccc1SC(CC(=O)c1ccccc1)c1c(Cl)cccc1Cl (stereo unspecified)', 'inactive'),
  ('COc1cc2cc(OC(C)=O)c3cc4c(cc3c2c(OC)c1OC)OCO4', 'inactive'),
  ('CCCC(=O)Nc1ccc2c(c1)CN1C(=O)c3ccccc3C1=N2', 'inactive'),
  ('CCOC(=O)CCCS(C)(=O)=O', 'inactive'),
  ('O=[N+]([O-])c1ccc(S(=O)(=O)NN=C2CCCCC2)cc1', 'inactive'),
  ('O=C(O)CCCCNC(=O)c1ccccc1', 'inactive'),
  ('O=C1C[C@H](c2ccccc2)[C@H](c2ccccc2)C1', 'inactive'),
  ('N#C/C(=C\c1cc(O)c(O)c(O)c1)C(N)=O', 'inactive'),
  ('CSc1[nH]c(=O)ncc1F', 'inactive'),
  ('Nc1ccc(C(=O)c2ccc(N)c(Br)c2)cc1Br', 'inactive'),
  ('Oc1ccc(N=Nc2ccc(Br)cc2)c(O)c1', 'inactive'),
  ('CC1(C)Nc2cccc3c(N=Nc4ccc(N=Nc5ccccc5)c5ccccc45)ccc(c23)N1', 'inactive'),
  ('NNc1ccccc1C(=O)O', 'inactive'),
  ('O=c1cc(-c2ccccc2)nc2cc(-c3ccco3)[nH]n12', 'inactive'),
  ('COc1cccc(O)c1O', 'inactive'),
  ('O=C(/C=C/C(=O)c1ccccc1)c1ccccc1', 'inactive'),
  ('C1CNC(C2=NCCN2)=N1', 'inactive'),
  ('COc1cc(CCN=Cc2ccccc2O)c([N+](=O)[O-])cc1OC', 'inactive'),
  ('O=C(O)c1ccccc1NCc1ccco1', 'inactive'),
  ('Cc1ccccc1N=C(c1ccccc1)C1C(=O)c2ccccc2C1=O', 'inactive'),
  ('C/C(=N/NC(N)=O)c1ccco1', 'inactive'),
  ('O=[N+]([O-])c1ccc(CO)cc1', 'inactive'),
  ('CCOC(=O)C(O)C(O)C(=O)OCC (stereo unspecified)', 'inactive'),
  ('Nc1ccc(CC(=O)O)c(N)c1', 'inactive'),
  ('CCC(C#N)(CC)c1ccccc1', 'inactive'),
  ('COC(=O)c1ccccc1N(C)C', 'inactive'),
  ('O=[N+]([O-])c1ccc(-c2ncc(-c3ccc(Br)cc3)o2)cc1', 'inactive'),
  ('N#CCCN(CCCN1CCOCC1)CN1C(=O)c2ccccc2C1=O', 'inactive'),
  ('CCCCCCCCOC(=O)c1ccccn1', 'inactive'),
  ('C=CCNC(=O)c1ccc(OC)cc1', 'inactive'),
  ('O=C(NCO)c1ccccc1', 'inactive'),
  ('Nc1ncnc2[nH]ncc12', 'active'),
  ('CC(=O)Nc1cccc(Cl)c1C', 'inactive'),
  ('COc1nc(N)nc2c1ncn2C1OC(CO)CC1O (stereo unspecified)', 'inactive'),
  ('COC(=O)c1ccc(NC(=O)CCl)cc1', 'inactive'),
  ('O=C(/C=C\c1ccc(O)cc1)c1ccccc1', 'inactive'),
  ('CC(=O)c1c[nH]c2ccccc12', 'inactive'),
  ('O=C(CCl)N1CCN(C/C=C/c2ccccc2)CC1', 'inactive'),
  ('CCCCCCCO', 'inactive'),
  ('N/N=C(/Cc1ccccc1)NNC(N)=S', 'inactive'),
  ('CCCCC/C=N/Nc1nc(C)cc(=O)[nH]1', 'inactive'),
  ('Nc1ccccc1C(=O)Nc1ccc(Cl)cc1Cl', 'inactive'),
  ('O=C1C=C(Nc2ccc([N+](=O)[O-])cc2)c2ccccc2C1=O', 'inactive'),
  ('CC1(C(N)=O)CCC(C(=O)O)C1(C)C (stereo unspecified)', 'inactive'),
  ('COc1cc(/C=C(\C#N)C(=O)c2ccccc2)ccc1OCc1ccccc1', 'inactive'),
  ('CCCCCCCCCCCCCC(=O)Oc1ccc[nH]c1=O', 'inactive');

====

- System: SK-MEL-28 melanoma
- TEST NAME: NCI-60 one-dose screen, 48 h (100 = growth as untreated, 0 = no growth, -100 = all killed)
- EXPERIMENTAL SETUP: 10 µM
This is part of a sample that, as a whole, favours compounds with a hit. Of some 83,000 tested, about 20% had one in any assay.
Item-by-item account of growth
MEASURED PROPERTY: growth (%)

INSERT INTO assay_data (compound, experimental_value) VALUES
  ('O=[N+]([O-])c1ccccc1S(=O)c1ccccc1[N+](=O)[O-]', 100),
  ('COc1cc2c3cc1Oc1c(OC)c(OC)cc4c1C(Cc1ccc(O)c(c1)Oc1ccc(cc1)CC3N(C)CC2)N(C)CC4 (stereo not drawn)', -80.8),
  ('CC(=O)OCCO', 100),
  ('COC(=O)c1ccc(NC(=O)CCl)cc1', 101),
  ('CCCC1(c2ccccc2)NC(=O)NC1=O (stereo not drawn)', 104),
  ('CC1(C)N=C(N)N=C(N)N1c1cccc(Br)c1', 72.5),
  ('Oc1ccccc1-c1nnco1', 101),
  ('CCOC(=O)C(O)C(O)C(=O)OCC (stereo not drawn)', 106),
  ('Cc1ccc(C(O)C2CC2)cc1 (stereo not drawn)', 106),
  ('COc1ccc(/C(C#N)=C2C=C/C(=N/O)c3ccccc3\2)cc1', 46.5),
  ('O=C1Cc2cc(O)ccc2O1', 108),
  ('CCOc1ccc2[nH]c(=S)sc2c1', 109),
  ('Nc1ccc(N=Nc2ccc(S(=O)(=O)O)cc2)c2ccccc12', 103);

====

Item-by-item account of growth
- System: U251 CNS
- TEST NAME: NCI-60 one-dose screen, 48 h (100 = growth as untreated, 0 = no growth, -100 = all killed)
- EXPERIMENTAL SETUP: 10 µM
Compounds without any hit were thinned out: in the full panel of roughly 83,000, 20% have a hit.
MEASURED PROPERTY: growth (%)

INSERT INTO results (compound, experimental_value) VALUES
  ('COc1cc2nn(-c3ccccc3N)nc2cc1OC', 91.7),
  ('CC(=O)OCC1CCCO1 (stereo not drawn)', 103),
  ('O=[N+]([O-])c1ccc(Cl)c(S(=O)(=O)O)c1', 111);

====

Item-by-item account of growth
- Test system: SR leukemia
- TEST NAME: NCI-60 one-dose screen, 48 h (100 = growth as untreated, 0 = no growth, -100 = all killed)
- EXPERIMENTAL SETUP: 10 µM
About 83,000 compounds went through this panel and 20% of them were active in at least one assay; those are over-represented in the sample as a whole.
MEASURED PROPERTY: growth (%)

INSERT INTO assay_data (compound, measured_property, experimental_value) VALUES
  ('CC1=C(/C=C/C(C)=C/C=C/C(C)=C/CO)C(C)(C)CCC1', 'growth', 94.8),
  ('CCCCN(CCCC)CCCO', 'growth', 113),
  ('CCCCCCCCO', 'growth', 102),
  ('COc1cc2c(cc1O)CC[C@@H]1C2CC[C@@]2(C)C1CC[C@@H]2O (some centres undefined)', 'growth', 15.1),
  ('CCOC(=O)CSc1c([N+](=O)[O-])ncn1C', 'growth', 86.4),
  ('CC1(C)N=C(N)N=C(N)N1c1ccc(Cl)cc1', 'growth', 52.7),
  ('C=CC[N+](C)(C)C', 'growth', 90.8),
  ('C=CC(O)CCC (centres undefined)', 'growth', 92.4),
  ('O=c1cc(-c2ccccc2)nc2cc(-c3ccco3)[nH]n12', 'growth', 13.1),
  ('CCS(=O)(=O)c1cc(=O)[nH]c(=O)[nH]1', 'growth', 57.6),
  ('Cc1cc(N)ccc1-c1ccc(N)cc1C', 'growth', 95.2),
  ('O=[N+]([O-])c1ccc(N=Nc2ccc(O)c3ccccc23)cc1', 'growth', 19.4),
  ('CC1CCC2C(C)(C)C3CC12CC1OC13C (centres undefined)', 'growth', 117),
  ('O=S(=O)(O)c1ccc(Cl)c(Cl)c1', 'growth', 99.8);
